# System: PPARg:RXRa 30nM:10nM, anti-RXR (NR concentration 30 nM, RXRa partner concentration 10 nM)
# assay.remarks: PBM binding z-score (relative to random genomic background probes); higher = stronger binding; sequences stand for … in GC…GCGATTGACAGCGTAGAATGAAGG
outcome.measure: PBM binding z-score
One number for each entry.

For the 7 sequences below, give their PBM binding z-score values.
1. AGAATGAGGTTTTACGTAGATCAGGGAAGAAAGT
2. TTACCAAGATGAAGGTCGTTGATCCCTCTGTAGA
3. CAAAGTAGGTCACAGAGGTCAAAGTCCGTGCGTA
4. GCGACTGGGGCAAAGCAGGTTATCATAAGGTTGG
5. TCTGCTAGGTCAACGAGGGTCAGCTAATCTGCTA
6. AGAACGAGGGCACGGTGAGTTGATAGCAGAGTAG
7. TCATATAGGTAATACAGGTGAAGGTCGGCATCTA

OUT:
1. 0.263
2. 1.5
3. 7.56
4. -0.476
5. 2.12
6. 0.933
7. 4.02
